Values from the supplement of paper PMC11061612

The following molecules are shown together with reported Bliss excess values.
- Test system: 42-MG-BA (Glioblastoma);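 also: after 72 h of two-drug dosing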
- test_details: Bliss excess, mean over the matrix (fraction); higher = more synergy

molecule	Bliss excess
CN(C)CCCOc1ccc(-c2ccc3ncc4c(c3c2)n(C2CCOCC2)c(=O)n4C)cn1 [AZD0156] + CCN(CCO)CCCOc1ccc2c(Nc3cc(CC(=O)Nc4cccc(F)c4)[nH]n3)ncnc2c1 [AZD2811] (first compound max 1 µM, 7x7, partner max 1 µM)	0.0813

Please find the next molecule below.
Name the reported Bliss excess value associated with the molecule COc1cc2ncnc(Nc3ccc(F)c(Cl)c3)c2cc1OCCCN1CCOCC1 [Gefitinib] + CC(C)n1c(=O)n(C)c2cnc3cc(F)c(-c4ccc(OCCCN5CCCCC5)nc4)cc3c21 [AZD1390] (first compound max 10 µM, 7x7, partner max 0.3 µM) -0.0891
